# Tested on: Streptococcus pneumoniae
# assay.comment: Antimicrobial activity against penicillin-susceptible Streptococcus pneumoniae by broth dilution method
# Type: functional
# assay.setup: Streptococcus pneumoniae

molecule	MIC50, µg/mL
Cn1nnc(-c2ccc(-c3ccc(N4C[C@H](CO)OC4=O)cc3F)cn2)n1 [TEDIZOLID]	0.25
C[C@H]1COc2c(N3CCN(C)CC3)c(F)cc3c(=O)c(C(=O)O)cn1c23.C[C@H]1COc2c(N3CCN(C)CC3)c(F)cc3c(=O)c(C(=O)O)cn1c23.O [LEVOFLOXACIN]	1
CO/N=C(\C(=O)N[C@@H]1C(=O)N2C(C(=O)O)=C(COC(C)=O)CS[C@H]12)c1csc(N)n1 [CEFOTAXIME]	0.015
CC(=O)NC[C@H]1CN(c2ccc(N3CCOCC3)c(F)c2)C(=O)O1 [LINEZOLID]	1

* * *

# Tested on: Haemophilus influenzae
# assay.comment: Antimicrobial activity against beta-lactamase positive Haemophilus influenzae by broth dilution method
# Assay type: functional
# assay.setup: Haemophilus influenzae
Examples of molecules with documented MIC50 follow.
quantity.kind: MIC50 (µg/mL)

In [3]: df
Out[3]:
                      smiles_representation  sign_qualifier  reported_result
0  CO/N=C(\C(=O)N[C@@H]1C(=O)N2C(C(=O)O)=C(COC(C)=O)CS[C@H]12)c1csc(N)n1               =            0.015
1  Cn1nnc(-c2ccc(-c3ccc(N4C[C@H](CO)OC4=O)cc3F)cn2)n1               =                8
2  CC(=O)NC[C@H]1CN(c2ccc(N3CCOCC3)c(F)c2)C(=O)O1               >                8
3  C[C@H]1COc2c(N3CCN(C)CC3)c(F)cc3c(=O)c(C(=O)O)cn1c23.C[C@H]1COc2c(N3CCN(C)CC3)c(F)cc3c(=O)c(C(=O)O)cn1c23.O               =             0.12

* * *

# Tested on: Streptococcus pneumoniae
# assay.comment: Antimicrobial activity against penicillin-resistant Streptococcus pneumoniae by broth dilution method
# Type: functional
Examples of compounds with documented MIC50 follow.
quantity.kind: MIC50 (µg/mL)

compound	reported.result
CO/N=C(\C(=O)N[C@@H]1C(=O)N2C(C(=O)O)=C(COC(C)=O)CS[C@H]12)c1csc(N)n1 [CEFOTAXIME]	1
Cn1nnc(-c2ccc(-c3ccc(N4C[C@H](CO)OC4=O)cc3F)cn2)n1 [TEDIZOLID]	0.25
C[C@H]1COc2c(N3CCN(C)CC3)c(F)cc3c(=O)c(C(=O)O)cn1c23.C[C@H]1COc2c(N3CCN(C)CC3)c(F)cc3c(=O)c(C(=O)O)cn1c23.O [LEVOFLOXACIN]	1
CC(=O)NC[C@H]1CN(c2ccc(N3CCOCC3)c(F)c2)C(=O)O1 [LINEZOLID]	1

* * *

# Test system: Haemophilus influenzae
# assay.comment: Antimicrobial activity against Haemophilus influenzae by broth dilution method
# Format: functional
# assay.setup: Haemophilus influenzae
quantity.kind: MIC50 (µg/mL)

                      smiles_representation  quantity_unit  sign_qualifier  reported_result
0  CO/N=C(\C(=O)N[C@@H]1C(=O)N2C(C(=O)O)=C(COC(C)=O)CS[C@H]12)c1csc(N)n1          µg/mL               =            0.015
1  Cn1nnc(-c2ccc(-c3ccc(N4C[C@H](CO)OC4=O)cc3F)cn2)n1          µg/mL               =                8
2  C[C@H]1COc2c(N3CCN(C)CC3)c(F)cc3c(=O)c(C(=O)O)cn1c23.C[C@H]1COc2c(N3CCN(C)CC3)c(F)cc3c(=O)c(C(=O)O)cn1c23.O          µg/mL               =             0.12
3  CC(=O)NC[C@H]1CN(c2ccc(N3CCOCC3)c(F)c2)C(=O)O1          µg/mL               >                8
